biological target: LIM domain kinase 1 (Homo sapiens); assay: Inhibition of LIMK1-catalyzed cofilin phosphorylation in human ZR-75-1 cells; assay type: cell-based
Sequence (P53667 whole entry, the tested form may be a part): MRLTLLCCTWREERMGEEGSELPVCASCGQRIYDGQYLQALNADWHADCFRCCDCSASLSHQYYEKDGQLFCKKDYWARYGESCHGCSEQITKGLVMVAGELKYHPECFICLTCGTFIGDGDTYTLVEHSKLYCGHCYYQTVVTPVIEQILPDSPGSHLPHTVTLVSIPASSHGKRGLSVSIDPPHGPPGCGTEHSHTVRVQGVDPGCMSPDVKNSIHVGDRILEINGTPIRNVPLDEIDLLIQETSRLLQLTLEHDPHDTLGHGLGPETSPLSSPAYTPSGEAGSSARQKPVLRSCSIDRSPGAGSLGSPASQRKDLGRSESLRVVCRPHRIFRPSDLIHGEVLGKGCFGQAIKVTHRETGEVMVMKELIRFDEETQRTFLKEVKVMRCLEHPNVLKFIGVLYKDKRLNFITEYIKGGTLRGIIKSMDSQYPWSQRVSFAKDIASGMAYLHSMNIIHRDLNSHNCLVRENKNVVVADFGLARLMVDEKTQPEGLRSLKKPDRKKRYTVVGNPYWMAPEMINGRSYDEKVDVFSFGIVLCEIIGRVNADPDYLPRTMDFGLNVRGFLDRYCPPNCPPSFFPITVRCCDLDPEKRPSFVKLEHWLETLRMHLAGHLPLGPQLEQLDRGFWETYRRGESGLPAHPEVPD
pIC50: −log10 of the molar value.
Let's look at some compounds and their measured pIC50.

Would you please look over these solved cases?
NC(=O)c1cccc(-c2ccc3c(c2)sc2c(N)ncnc23)c1 < 4.52
Nc1ncnc2c1sc1cc(-c3cccc(-c4nn[nH]n4)c3)ccc12 < 4.52

Attention now shifts to the item below.
Task item: Form field: reported pIC50 of `CCNC(=O)Nc1cccc(-c2ccc3c(c2)sc2c(N)ncnc23)c1`
Reply: < 4.52

###

target: LIM domain kinase 1 (Homo sapiens); assay: Inhibition of LIMK1 (unknown origin) assessed as remaining ATP level using cofilin-2 protein as substrate measured after 60 mins incubation with enzyme by KinaseGlo assay
ATTRIBUTE MEASURED: pIC50
# pIC50 is unitless: minus log10 of the molar concentration; print number only

Would you please look over these solved cases?
CS(=O)(=O)Nc1ccccc1-c1ccc2c(c1)sc1c(N)ncnc12 6.00
Nc1ncnc2c1sc1cc(-c3cccnc3)ccc12 6.10
CC(=O)Nc1cccc(-c2ccc3c(c2)sc2c(N)ncnc23)c1 6.40
Nc1ncnc2c1sc1cc(-c3ccc(NC=O)cc3)ccc12 7.36
Nc1ncnc2c1sc1cc(-c3ccccc3O)ccc12 6.59

Attention now shifts to the item below.
Task item: Form field: reported pIC50 of `NC(=O)c1ccc(-c2ccc3c(c2)sc2c(N)ncnc23)cc1`
Reply: 6.81
